# assay system: recombinant human CHIT1 (Homo sapiens (Human), UniProt Q13231)
# Sequence (Q13231 22-466): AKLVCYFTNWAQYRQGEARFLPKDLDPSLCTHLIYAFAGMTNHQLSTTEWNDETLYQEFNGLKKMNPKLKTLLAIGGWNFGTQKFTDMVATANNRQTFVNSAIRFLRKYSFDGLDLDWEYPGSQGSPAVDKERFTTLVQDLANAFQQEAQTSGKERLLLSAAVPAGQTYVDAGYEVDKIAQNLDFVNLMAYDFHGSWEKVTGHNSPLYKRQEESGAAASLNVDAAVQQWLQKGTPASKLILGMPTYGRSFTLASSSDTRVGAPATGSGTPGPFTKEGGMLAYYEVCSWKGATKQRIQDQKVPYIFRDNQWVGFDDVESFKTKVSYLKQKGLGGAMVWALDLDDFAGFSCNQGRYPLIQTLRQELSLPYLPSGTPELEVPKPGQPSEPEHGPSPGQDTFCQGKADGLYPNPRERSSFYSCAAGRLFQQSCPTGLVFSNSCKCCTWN
# procedure summary: Human CHIT1 activity assay
# condition: recombinant human CHIT1, citrate buffer pH 5.2, 37° C., 60 minutes; read-out: hCHIT1, IC50
measured parameter: IC50

molecule	assay system	experimental result
C[C@H]1CN(C2CCN(c3nnc(N)[nH]3)CC2)[C@@H](Cc2ccc(Br)cc2)CO1 [Example 75, 2,2,2-trifluoroacetate]	recombinant human CHIT1 (Homo sapiens (Human), UniProt Q13231)	< 100 nM
CCC(O)(CC)[C@H]1CN(C2CCN(c3nnc(N)[nH]3)CC2)[C@@H](Cc2ccc(Cl)cc2)CO1 [Example 68, 2,2,2-trifluoroacetate]	recombinant human CHIT1 (Homo sapiens (Human), UniProt Q13231)	< 100 nM

Continue with the molecule presented below.
Fill blank: measured IC50 of the molecule CC(C)NC(=O)[C@H]1CN(C2CCN(c3nnc(N)[nH]3)CC2)[C@@H](Cc2ccc(Cl)cc2)CO1 [Example 65, 2,2,2-trifluoroacetate] is ____.
100 to 1000 nM

* * *

# assay system: hERG channel (Homo sapiens (Human))
# Sequence (Q12809 whole entry): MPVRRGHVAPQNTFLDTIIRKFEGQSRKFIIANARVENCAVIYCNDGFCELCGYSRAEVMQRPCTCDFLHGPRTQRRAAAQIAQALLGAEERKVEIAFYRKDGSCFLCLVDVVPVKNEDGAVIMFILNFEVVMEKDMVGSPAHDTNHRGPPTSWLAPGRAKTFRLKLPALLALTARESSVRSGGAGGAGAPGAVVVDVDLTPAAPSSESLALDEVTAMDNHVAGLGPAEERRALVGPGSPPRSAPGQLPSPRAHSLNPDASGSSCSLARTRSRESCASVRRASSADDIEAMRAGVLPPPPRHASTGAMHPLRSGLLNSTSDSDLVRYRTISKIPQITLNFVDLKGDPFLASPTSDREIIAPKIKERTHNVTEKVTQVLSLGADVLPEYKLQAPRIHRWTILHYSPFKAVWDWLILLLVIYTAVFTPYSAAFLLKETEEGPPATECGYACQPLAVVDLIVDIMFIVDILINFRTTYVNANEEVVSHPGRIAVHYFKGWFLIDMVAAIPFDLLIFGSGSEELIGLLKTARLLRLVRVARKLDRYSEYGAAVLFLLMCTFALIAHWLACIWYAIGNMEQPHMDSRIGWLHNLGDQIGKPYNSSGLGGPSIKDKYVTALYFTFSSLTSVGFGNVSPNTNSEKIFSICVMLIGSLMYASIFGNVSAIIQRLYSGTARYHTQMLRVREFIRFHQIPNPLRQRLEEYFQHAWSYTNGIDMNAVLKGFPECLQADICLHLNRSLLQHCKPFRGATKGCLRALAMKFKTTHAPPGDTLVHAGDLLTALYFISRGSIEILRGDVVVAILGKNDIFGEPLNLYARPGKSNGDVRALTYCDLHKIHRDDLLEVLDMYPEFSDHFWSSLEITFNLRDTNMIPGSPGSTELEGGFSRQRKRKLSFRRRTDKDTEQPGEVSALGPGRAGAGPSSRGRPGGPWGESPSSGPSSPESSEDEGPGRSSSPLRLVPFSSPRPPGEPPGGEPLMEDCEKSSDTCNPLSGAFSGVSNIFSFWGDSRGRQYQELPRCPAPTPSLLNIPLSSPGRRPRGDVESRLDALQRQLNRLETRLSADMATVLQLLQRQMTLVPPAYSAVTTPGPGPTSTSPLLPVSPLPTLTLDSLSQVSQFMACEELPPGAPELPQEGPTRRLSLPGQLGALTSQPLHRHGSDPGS
# procedure summary: Human ERG channel binding assay (fluorescence polarization)
# condition: Table 1; tracer displacement, 4 h at room temperature
Counter-ions that a name gives are not always drawn.
measured parameter: IC50

// solved cases for IC50 follow
compound	assay system	IC50
C[S+]([O-])C[C@H]1CN(C2CCN(c3nnc(N)[nH]3)CC2)[C@@H](Cc2ccc(Cl)cc2)CO1 (stereo partly drawn) [Example 32, dihydrochloride]	hERG channel (Homo sapiens (Human))	> 100 µM
Nc1nnc(N2CCC(N3C[C@H](C(=O)NC4CC4)OC[C@@H]3Cc3ccc(Cl)cc3)CC2)[nH]1 [Example 24, 2,2,2-trifluoroacetate]	hERG channel (Homo sapiens (Human))	> 100 µM
Nc1nnc(N2CCC(N3C[C@H](C(=O)NCC(F)(F)F)OC[C@@H]3Cc3ccc(Cl)cc3)CC2)[nH]1 [Example 26, 2,2,2-trifluoroacetate]	hERG channel (Homo sapiens (Human))	> 100 µM

Fill blank: measured IC50 of the compound CN(C)C(=O)OC[C@H]1CN(C2CCN(c3nnc(N)[nH]3)CC2)[C@@H](Cc2ccc(Cl)cc2)CO1 [Example 48, 2,2,2-trifluoroacetate] is ____.
25 to 100 µM

Fill blank: measured IC50 of the compound Nc1nnc(N2CCC(N3C[C@H](Cn4ccnn4)OC[C@@H]3Cc3ccc(Cl)cc3)CC2)[nH]1 [Example 21, 2,2,2-trifluoroacetate] is ____.
25 to 100 µM

Fill blank: measured IC50 of the compound Nc1nnc(N2CCC(N3C[C@H](N4CCOCC4)CC[C@@H]3Cc3ccc(Cl)cc3)CC2)[nH]1 [Example 58, 2,2,2-trifluoroacetate] is ____.
10 to 25 µM

Fill blank: measured IC50 of the compound Cc1coc([C@H]2CN(C3CCN(c4nnc(N)[nH]4)CC3)[C@@H](Cc3ccc(Cl)cc3)CO2)n1 [Example 49, 2,2,2-trifluoroacetate] is ____.
10 to 25 µM

Fill blank: measured IC50 of the compound C[C@@H](O)[C@H]1CN(C2CCN(c3nnc(N)[nH]3)CC2)[C@@H](Cc2ccc(Cl)cc2)CO1 [Example 67, 2,2,2-trifluoroacetate] is ____.
> 100 µM

Fill blank: measured IC50 of the compound Nc1nnc(N2CCC(N3C[C@H](N4CCOCC4)C[C@@H]3Cc3ccc(Cl)cc3)CC2)[nH]1 [Example 55, 2,2,2-trifluoroacetate] is ____.
25 to 100 µM

Fill blank: measured IC50 of the compound Nc1nnc(N2CCC(N3C[C@H](C(F)F)OC[C@@H]3Cc3ccc(Cl)cc3)CC2)[nH]1 [Example 2, 2,2,2-trifluoroacetate] is ____.
> 100 µM

Fill blank: measured IC50 of the compound CC1CN(C[C@H]2CN(C3CCN(c4nnc(N)[nH]4)CC3)[C@@H](Cc3ccc(Cl)cc3)CO2)C1 [Example 51, 2,2,2-trifluoroacetate] is ____.
25 to 100 µM

Fill blank: measured IC50 of the compound Nc1nnc(N2CCC(N3C[C@H](CN4CCOCC4)OC[C@@H]3Cc3ccc(Cl)cc3)CC2)[nH]1 [Example 15, 2,2,2-trifluoroacetate] is ____.
> 100 µM

Fill blank: measured IC50 of the compound Cc1cc([C@H]2CN(C3CCN(c4nnc(N)[nH]4)CC3)[C@@H](Cc3ccc(Cl)cc3)CO2)[nH]n1 [Example 34, 2,2,2-trifluoroacetate] is ____.
25 to 100 µM

Fill blank: measured IC50 of the compound Nc1nnc(N2CCC(N3C[C@H](Cn4cncn4)OC[C@@H]3Cc3ccc(Cl)cc3)CC2)[nH]1 [Example 27, 2,2,2-trifluoroacetate] is ____.
> 100 µM

Fill blank: measured IC50 of the compound Nc1nnc(N2CCC(N3C[C@H](C(=O)N4CCC(F)(F)C4)OC[C@@H]3Cc3ccc(Cl)cc3)CC2)[nH]1 [Example 54, 2,2,2-trifluoroacetate] is ____.
> 100 µM

Fill blank: measured IC50 of the compound CC1(C)CC1NC(=O)[C@H]1CN(C2CCN(c3nnc(N)[nH]3)CC2)[C@@H](Cc2ccc(Cl)cc2)CO1 (stereo partly drawn) [Example 23, 2,2,2-trifluoroacetate] is ____.
> 100 µM

Fill blank: measured IC50 of the compound CSC[C@H]1CN(C2CCN(c3nnc(N)[nH]3)CC2)[C@@H](Cc2ccc(Cl)cc2)CO1 [Example 41, dihydrochloride] is ____.
25 to 100 µM

Fill blank: measured IC50 of the compound Nc1nnc(N2CCC(N3C[C@@H]4CC(F)(F)CN4C[C@@H]3Cc3ccc(C(F)(F)F)cc3)CC2)[nH]1 [Example 78, 2,2,2-trifluoroacetate] is ____.
10 to 25 µM

* * *

Catalogue of IC50 readings, one per entry.
# assay system: recombinant human CHIT1 (Homo sapiens (Human), UniProt Q13231)
# procedure summary: Human CHIT1 activity assay
# condition: recombinant human CHIT1, citrate buffer pH 5.2, 37° C., 60 minutes; read-out: hCHIT1, IC50
Where a name gives a salt, the structure may show the parent alone.

// solved cases for IC50 follow
compound	assay system	IC50
CS(=O)(=O)CCNC(=O)[C@H]1CN(C2CCN(c3nnc(N)[nH]3)CC2)[C@@H](Cc2ccc(Cl)cc2)CO1 [Example 45, 2,2,2-trifluoroacetate]	recombinant human CHIT1 (Homo sapiens (Human), UniProt Q13231)	< 100 nM
CC1(O)CCN(C2CCN(c3nnc(N)[nH]3)CC2)[C@@H](Cc2ccc(Cl)cc2)C1 (stereo partly drawn) [Example 59, 2,2,2-trifluoroacetate]	recombinant human CHIT1 (Homo sapiens (Human), UniProt Q13231)	1000 to 10000 nM
Nc1nnc(N2CCC(N3C[C@H](C(=O)N4CCC(F)(F)CC4)OC[C@@H]3Cc3ccc(Cl)cc3)CC2)[nH]1 [Example 53, 2,2,2-trifluoroacetate]	recombinant human CHIT1 (Homo sapiens (Human), UniProt Q13231)	100 to 1000 nM
Nc1nnc(N2CCC(N3C[C@H](N4CCOCC4)CC[C@@H]3Cc3ccc(Cl)cc3)CC2)[nH]1 [Example 58, 2,2,2-trifluoroacetate]	recombinant human CHIT1 (Homo sapiens (Human), UniProt Q13231)	100 to 1000 nM
Nc1nnc(N2CCC(N3C[C@@H]4COCCN4C[C@@H]3Cc3ccc(Cl)cc3)CC2)[nH]1 [Example 73, hydrochloride]	recombinant human CHIT1 (Homo sapiens (Human), UniProt Q13231)	100 to 1000 nM
Nc1nnc(N2CCC(N3C[C@H](CN4CCCCC4)OC[C@@H]3Cc3ccc(Cl)cc3)CC2)[nH]1 [Example 52, 2,2,2-trifluoroacetate]	recombinant human CHIT1 (Homo sapiens (Human), UniProt Q13231)	100 to 1000 nM

Fill blank: measured IC50 of the compound Nc1nnc(N2CCC(N3C[C@H](CN4CCC(F)(F)C4)OC[C@@H]3Cc3ccc(Cl)cc3)CC2)[nH]1 [Example 29, 2,2,2-trifluoroacetate] is ____.
< 100 nM

Fill blank: measured IC50 of the compound N#Cc1cnn(C[C@H]2CN(C3CCN(c4nnc(N)[nH]4)CC3)[C@@H](Cc3ccc(Cl)cc3)CO2)c1 [Example 8, 2,2,2-trifluoroacetate] is ____.
< 100 nM

* * *

# assay system: recombinant human AMCase (Homo sapiens (Human), UniProt Q9BZP6)
# Sequence (Q9BZP6 22-476): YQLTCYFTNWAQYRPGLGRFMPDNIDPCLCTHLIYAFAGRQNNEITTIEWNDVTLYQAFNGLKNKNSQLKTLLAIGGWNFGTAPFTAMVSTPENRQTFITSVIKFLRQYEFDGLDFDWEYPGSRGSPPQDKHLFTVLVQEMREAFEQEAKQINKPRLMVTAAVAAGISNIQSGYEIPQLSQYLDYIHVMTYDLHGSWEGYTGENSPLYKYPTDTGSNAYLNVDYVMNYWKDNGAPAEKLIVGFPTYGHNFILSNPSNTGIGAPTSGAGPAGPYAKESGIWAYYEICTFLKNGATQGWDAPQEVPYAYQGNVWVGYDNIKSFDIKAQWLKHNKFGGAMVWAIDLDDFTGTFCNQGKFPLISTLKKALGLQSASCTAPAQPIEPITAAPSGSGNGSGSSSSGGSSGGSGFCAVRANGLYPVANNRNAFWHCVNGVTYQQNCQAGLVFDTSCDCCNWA
# procedure summary: Human AMCase activity assay
# condition: citrate buffer pH 5.2, 37° C., 60 minutes, read-out: hAMCase, IC50
pIC50: −log10 of the molar value.
Catalogue of pIC50 readings, one per entry.

// solved cases for pIC50 follow
compound	pIC50
Nc1nnc(N2CCC(N3C[C@H](C(=O)NCC(F)F)OC[C@@H]3Cc3ccc(Cl)cc3)CC2)[nH]1 [Example 25, 2,2,2-trifluoroacetate]	> 7.00
Nc1nnc(N2CCC(N3C[C@H](Cn4ccnc4)OC[C@@H]3Cc3ccc(Cl)cc3)CC2)[nH]1 [Example 47, 2,2,2-trifluoroacetate]	> 7.00

Continue with the compound presented below.
Fill blank: measured pIC50 of the compound Cc1cc([C@H]2CN(C3CCN(c4nnc(N)[nH]4)CC3)[C@@H](Cc3ccc(Cl)cc3)CO2)on1 [Example 22, 2,2,2-trifluoroacetate] is ____.
> 7.00
